molecular target: BRM (Homo sapiens, UniProt P51531); construct: made in house; host or cells: High Five insect cells; experiment: ATPase catalytic activity of BRM, ADP-Glo in vitro biochemical assay; conditions: selectivity ratio BRG1 IC50 / BRM IC50
Sequence (P51531 whole entry): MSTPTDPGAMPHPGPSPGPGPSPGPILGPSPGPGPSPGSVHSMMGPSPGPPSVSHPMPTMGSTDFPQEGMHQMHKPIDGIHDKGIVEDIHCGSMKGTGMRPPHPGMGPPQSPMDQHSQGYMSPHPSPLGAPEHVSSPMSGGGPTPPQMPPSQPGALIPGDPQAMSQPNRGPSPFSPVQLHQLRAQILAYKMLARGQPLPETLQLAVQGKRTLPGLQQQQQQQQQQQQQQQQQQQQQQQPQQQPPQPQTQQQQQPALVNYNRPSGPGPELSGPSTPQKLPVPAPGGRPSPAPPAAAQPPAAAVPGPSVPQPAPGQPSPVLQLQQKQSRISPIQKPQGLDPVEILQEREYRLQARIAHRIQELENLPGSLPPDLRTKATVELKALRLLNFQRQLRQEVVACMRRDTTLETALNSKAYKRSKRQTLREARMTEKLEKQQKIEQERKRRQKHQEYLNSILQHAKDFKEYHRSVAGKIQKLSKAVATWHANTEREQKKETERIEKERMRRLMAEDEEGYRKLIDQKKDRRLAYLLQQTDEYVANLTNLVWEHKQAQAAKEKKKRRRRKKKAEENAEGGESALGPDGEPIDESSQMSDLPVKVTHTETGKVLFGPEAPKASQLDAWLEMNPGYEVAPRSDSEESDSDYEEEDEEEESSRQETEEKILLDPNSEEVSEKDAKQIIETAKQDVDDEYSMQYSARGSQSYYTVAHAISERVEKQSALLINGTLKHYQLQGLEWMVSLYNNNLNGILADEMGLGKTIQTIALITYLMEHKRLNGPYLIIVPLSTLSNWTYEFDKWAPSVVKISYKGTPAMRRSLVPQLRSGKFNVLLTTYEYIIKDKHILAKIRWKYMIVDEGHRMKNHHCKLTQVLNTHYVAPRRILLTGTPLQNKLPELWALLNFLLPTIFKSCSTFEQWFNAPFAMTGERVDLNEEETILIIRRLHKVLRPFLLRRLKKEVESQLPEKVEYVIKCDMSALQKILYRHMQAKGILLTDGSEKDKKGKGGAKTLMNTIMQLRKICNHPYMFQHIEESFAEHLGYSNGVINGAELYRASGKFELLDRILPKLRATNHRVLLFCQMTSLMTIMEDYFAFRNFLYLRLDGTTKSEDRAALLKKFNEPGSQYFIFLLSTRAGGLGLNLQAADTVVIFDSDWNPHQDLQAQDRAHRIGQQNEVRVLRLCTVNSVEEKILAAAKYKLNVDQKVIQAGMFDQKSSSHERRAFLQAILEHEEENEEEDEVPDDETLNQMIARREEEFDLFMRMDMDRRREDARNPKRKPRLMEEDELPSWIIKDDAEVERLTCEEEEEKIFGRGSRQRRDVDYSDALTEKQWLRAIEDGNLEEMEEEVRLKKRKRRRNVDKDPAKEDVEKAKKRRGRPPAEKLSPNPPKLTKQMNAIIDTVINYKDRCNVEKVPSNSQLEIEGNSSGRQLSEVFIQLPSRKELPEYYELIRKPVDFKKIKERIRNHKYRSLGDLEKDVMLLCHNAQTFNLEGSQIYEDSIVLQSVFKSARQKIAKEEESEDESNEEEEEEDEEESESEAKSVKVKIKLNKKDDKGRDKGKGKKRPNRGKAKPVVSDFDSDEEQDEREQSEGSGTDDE
// reported Ratio* (BRG1 IC50 (μM) divided by BRM IC50 (μM)) per item
When you answer, write just the number.

Enquiry: For the compound C[C@H]1CN(c2cccc(-c3ccc4cnc(CNC(=O)c5ccc6c(c5)S(=O)(=O)CCOC6)cc4n3)n2)C[C@H](C)O1 , give its reported Ratio* (BRG1 IC50 (μM) divided by BRM IC50 (μM)).
Return: 8.63

###

biological target: BRM (Homo sapiens, UniProt P51531); construct: made in house; host or cells: High Five insect cells; assay: ATPase catalytic activity of BRM, ADP-Glo in vitro biochemical assay; details: ratio of BRG1 IC50 to BRM IC50
Lab note: anything with Ratio* below 10 is marked YES; values at 10 or higher are marked NO.

Illustrative cases are given below, each with its answer.
N#Cc1ccc2c(c1)CCCN2c1ccc2cnc(CNC(=O)c3ccc4c(c3)S(=O)(=O)CCOC4)cc2n1 :: YES
COCCN(c1cccc(-c2ccc3cnc(CNC(=O)c4ccc5c(c4)S(=O)(=O)CCOC5)cc3n2)n1)C1CCC1 :: YES
O=C(NCc1cc2nc(N3CCCc4cc(N5CCC5)cnc43)ccc2cn1)c1ccc2c(c1)S(=O)(=O)CCOC2 :: NO
O=C(NCc1cc2nc(N3CCCc4ccc(OC5COC5)cc43)ccc2cn1)c1ccc2c(c1)S(=O)(=O)CCOC2 :: NO

Enquiry: Input COCCN(c1cccc(-c2ccc3cnc(CNC(=O)c4ccc5c(c4)S(=O)(=O)CCOC5)cc3n2)n1)C1CC1 ; condition: Ratio* strictly below 10. Does it hold?
Return: NO

###

biological target: BRM (Homo sapiens); construct: made in house; host or cells: High Five insect cells; assay: ATPase catalytic activity of BRM, ADP-Glo in vitro biochemical assay; conditions: ratio of BRG1 IC50 to BRM IC50
Lab note: anything with Ratio* below 9 is marked 1; values at 9 or higher are marked -1.

Illustrative cases are given below, each with its answer.
O=C(NCc1cc2nc(N3CCOc4cc(Cl)cnc43)ccc2cn1)c1cc(F)c2c(c1)S(=O)(=O)CCOC2 :: -1
CCN(c1cccc(-c2ccc3cnc(CNC(=O)c4cc(F)c5c(c4)S(=O)(=O)CCOC5)cc3n2)n1)C1CC1 :: -1
O=C(NCc1cc2nc(-c3cccc4c3CN(C3CC3)CC4)ccc2cn1)c1ccc2c(c1)S(=O)(=O)CCOC2 :: 1

Enquiry: Input COCCOc1ccc2c(c1)N(c1ccc3cnc(CNC(=O)c4ccc5c(c4)S(=O)(=O)CCOC5)cc3n1)CCC2 ; condition: Ratio* strictly below 9. Does it hold?
Return: -1

Enquiry: Input CO[C@@H]1C[C@H]1N(C)c1cccc(-c2ccc3cnc(CNC(=O)c4ccc5c(c4)S(=O)(=O)[C@@H](C)COC5)cc3n2)n1 ; condition: Ratio* strictly below 9. Does it hold?
Return: -1

###

target: BRM (Homo sapiens); construct: made in house; host or cells: High Five insect cells; experiment: ATPase catalytic activity of BRM, ADP-Glo in vitro biochemical assay; conditions: selectivity ratio BRG1 IC50 / BRM IC50
MEASURED ATTRIBUTE: Ratio* (BRG1 IC50 (μM) divided by BRM IC50 (μM))
When you answer, write just the number.

O=C(NCc1cc2nc(-c3cccc(N4CCC(F)(F)CC4)n3)ccc2cn1)c1ccc2c(c1)S(=O)(=O)CCOC2 :: 9.55
Cn1ccc2c(-c3ccc4cnc(CNC(=O)c5ccc6c(c5)S(=O)(=O)CCOC6)cc4n3)ccc(Cl)c21 :: 9.33
C[C@@H]1CN(c2cccc(-c3ccc4cnc(CNC(=O)c5ccc6c(c5)S(=O)(=O)CCOC6)cc4n3)n2)C[C@H](C)O1 :: 4.64

Enquiry: For the molecule CCc1cc(C(=O)NCc2cc3nc(-c4cccc(N5C[C@@H](C)O[C@@H](C)C5)n4)ccc3cn2)cc2c1COCCS2(=O)=O , give its reported Ratio* (BRG1 IC50 (μM) divided by BRM IC50 (μM)).
Return: 10.68

Enquiry: For the molecule O=C(NCc1cc2nc(-c3cncc(C(F)(F)F)n3)ccc2cn1)c1ccc2c(c1)S(=O)(=O)CCOC2 , give its reported Ratio* (BRG1 IC50 (μM) divided by BRM IC50 (μM)).
Return: 7.27

Enquiry: For the molecule Cn1ccc2c(-c3ccc4cnc(CNC(=O)c5ccc6c(c5)S(=O)(=O)CCOC6)cc4n3)ccnc21 , give its reported Ratio* (BRG1 IC50 (μM) divided by BRM IC50 (μM)).
Return: 11.00
